Cited source for all entries: patent US20160031999A1

# study-target: T1, human IL-11Rα on transfected cells (human, UniProt Q14626 23-422)
# T1 sequence: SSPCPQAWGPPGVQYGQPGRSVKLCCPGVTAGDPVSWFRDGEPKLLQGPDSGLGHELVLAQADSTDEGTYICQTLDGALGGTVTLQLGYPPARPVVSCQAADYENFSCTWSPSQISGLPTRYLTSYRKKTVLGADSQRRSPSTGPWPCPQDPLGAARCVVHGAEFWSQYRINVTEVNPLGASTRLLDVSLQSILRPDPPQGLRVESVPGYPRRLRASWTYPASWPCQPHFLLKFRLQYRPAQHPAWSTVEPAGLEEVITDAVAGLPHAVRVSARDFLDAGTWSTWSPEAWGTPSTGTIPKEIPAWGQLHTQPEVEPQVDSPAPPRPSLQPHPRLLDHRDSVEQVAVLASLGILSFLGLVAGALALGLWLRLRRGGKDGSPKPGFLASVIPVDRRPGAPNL
# assay-notes: cell-based or functional assay
quantity-kind: IC50 (µg/mL)
Give the number; µg/mL is assumed, so skip it.

Ask | Complete the entry with IC50 for hu8E2-TS-51 (antibody, V domains shown) VH: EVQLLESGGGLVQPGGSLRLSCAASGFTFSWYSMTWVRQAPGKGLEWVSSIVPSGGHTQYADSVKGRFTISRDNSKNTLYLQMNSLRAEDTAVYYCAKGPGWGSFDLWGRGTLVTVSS VL: DIQMTQSPSSLSASVGDRVTITCQASQDINNYLNWYQQKPGKAPKLLIYDASNLQTGVPSRFSGSGSGTDFTFTISSLQPEDIATYYCQQYESQWPFFGPGTKVDIK
Reply | 0.28

Ask | Given the binder hu8E2-TS-2 (antibody, V domains shown) VH: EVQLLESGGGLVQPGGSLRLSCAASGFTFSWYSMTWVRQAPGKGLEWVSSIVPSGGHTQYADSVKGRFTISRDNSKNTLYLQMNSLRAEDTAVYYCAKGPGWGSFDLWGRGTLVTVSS VL: DIQMTQSPSSLSASVGDRVTITCQASQDINNYLNWYQQKPGKAPKLLIYDASNLQTGVPSRFSGSGSGTDFTFTISSLQPEDIATYYCQQAEDQSPTFGPGTKVDIK , write its reported IC50.
Reply | 0.26
